microsomal CLint by entry:
Assay: Intrinsic clearance in human liver microsomes
Format: ADME, Microsome

Please review the entries below; each comes with its answer.
>>> value("Fc1ccc(C2Cc3nccn3C2)c(-c2cc[nH]n2)c1 (stereo unspecified)")
"< 8 µL/min/mg"
>>> value("Fc1cccc(-c2cncnc2)c1C1Cc2nccn2C1 (stereo unspecified)")
"< 8 µL/min/mg"
>>> value("Cn1cc(-c2ccccc2[C@@H]2Cc3nccn3C2)cn1")
"< 7 µL/min/mg"
>>> value("N#Cc1ccccc1[C@@H]1Cc2nccn2C1")
"< 7 µL/min/mg"
>>> value("Fc1ccc(-c2cncnc2)c(C2Cc3nccn3C2)c1 (stereo unspecified)")
"< 8 µL/min/mg"

Below: the item to evaluate.
Asked: Requested field: microsomal CLint. Item: "CNS(=O)(=O)CCc1ccccc1[C@@H]1Cc2nccn2C1"
Given back: < 8 µL/min/mg
